- ASSAY_TEXT: adipocyte viability effects, profiling panel, cell-based, 3T3-L1 adipocytes, calcein-AM fluorescence, 48 h, basal (AID 1163); note: test concentration not given here
- CONDITION_SET: 3T3-L1 adipocytes viability, higher = more signal
z-score under 0.5 gets Met, anything at or over 0.5 gets Not met.

Example cases with answers are listed next.
[ask] A record lists CCCCCCC#C[Si](O[C@H](c1ccccc1)c1cn([C@H](CO)Cc2ccccc2)nn1)(C(C)C)C(C)C . Is its z-score below 0.5?
[reply] Met

[ask] # TODO verify z-score < 0.5 strictly for this molecule: CC(C)(C)OC(=O)CC[C@]1(C(=O)NCC(O)CO)COC(c2ccc(OCCCO)cc2)=N1 (some centres undefined)
[reply] Met

[ask] Criterion: z-score strictly below 0.5. Is it met by COc1cc2c(cc1OC)CN(C(=O)[C@H]1[C@@H]3C(=O)O[C@@H](c4ccccc4)[C@@H](c4ccccc4)N3[C@@H](c3ccc(O)cc3)[C@]13C(=O)Nc1ccc(C#CCNC(N)=O)cc13)CC2 ?
[reply] Met

[ask] Bench note: check whether C=C(CCCC)/C(=C/C[C@@H](OC(C)=O)c1ccccc1OCCO)c1cnc2ccccc2c1 shows z-score below 0.5
[reply] Not met

[ask] For this molecule, is z-score lower than 0.5? COC(=O)C(CC#Cc1ccc2c(c1)[C@]1(C(=O)N2)[C@H](C(=O)O)[C@H]2C(=O)O[C@H](c3ccccc3)[C@H](c3ccccc3)N2[C@@H]1c1ccc(O)cc1)C(=O)OC
[reply] Met

More entries:
[ask] Please determine if CCOC(=O)C[C@H]1[C@H](OC(=O)c2cc3ccccc3oc2=O)[C@@H](NC(=O)C2CCCCC2)c2cc(OCCCO)ccc2N1C(=O)c1ccccc1 is below 0.5 in terms of z-score.
[reply] Not met

[ask] I'd appreciate it if you could check whether O=C1OCCC/C=C\[C@H]2OC34C=CCN(Cn5nnc6ccccc65)C(=O)[C@H]3N(CCCCCCO)C(=O)[C@@H]4C12 (some centres undefined) has z-score smaller than 0.5.
[reply] Met

[ask] Consider COC(=O)[C@@]1(Cc2ccc(F)cc2)[C@@H]2[C@@H](CC(=O)[C@H]2CC(=O)C(=O)N(C)C)CN1C(=O)c1ccccc1 . Does its z-score lie strictly below 0.5?
[reply] Met

[ask] Does the reported z-score of the following molecule sit strictly below 0.5? CCOC(=O)C[C@H]1[C@H](OC(=O)Cc2ccc3c(c2)OCO3)[C@@H](NC(=O)c2ccc3ccccc3c2)c2cc(OCCCO)ccc2N1C(=O)c1ccccc1
[reply] Met

[ask] Determine if C=CCNC(=O)[C@H]1[C@@H]2C(=O)O[C@@H](c3ccccc3)[C@@H](c3ccccc3)N2[C@@H](c2ccc(OCCO)cc2)[C@]12C(=O)N(C(=O)OCCOC)c1ccccc12 shows z-score strictly lower than 0.5.
[reply] Not met

[ask] Is z-score of C=CCN1C(=O)[C@@]2(O[C@@H](CCO)[C@H]([Si](C)(C)c3ccc(OC)cc3)[C@H]2C)c2cc(NC(=O)c3ccc(OC)cc3)ccc21 strictly below 0.5?
[reply] Met

[ask] Please let me know if C=C(C)C1C(=C)CN([C@H](CO)c2ccccc2)C1=O (some centres undefined) shows z-score below 0.5.
[reply] Not met

[ask] Hello, I'm reviewing records and need to know if z-score of CN1C(=O)C2C=CC(C(O)C3CC=CCC3)N(NC(=O)OC(C)(C)C)C2C1=O (centres undefined) is below 0.5. Could you check?
[reply] Met

[ask] Identify whether the molecule CC(C)OC(=O)C=C1C[C@@H](c2ccccc2C(F)(F)F)O[C@@H](c2ccccc2C(F)(F)F)O1 records z-score below 0.5.
[reply] Met
